Sequence of the target: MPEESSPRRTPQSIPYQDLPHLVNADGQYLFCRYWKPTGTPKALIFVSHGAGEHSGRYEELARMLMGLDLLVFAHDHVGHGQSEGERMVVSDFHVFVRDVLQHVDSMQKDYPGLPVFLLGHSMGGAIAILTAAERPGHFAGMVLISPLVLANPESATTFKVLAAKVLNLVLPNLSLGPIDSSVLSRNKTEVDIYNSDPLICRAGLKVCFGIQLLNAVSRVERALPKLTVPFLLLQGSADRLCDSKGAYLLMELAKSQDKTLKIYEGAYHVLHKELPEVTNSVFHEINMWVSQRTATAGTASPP
pIC50: −log10 of the molar value.
Label scheme for pIC50: lower than 7 is rule not met, 7 and above is rule met.

Query block: Please tell me: is the compound `O=C(c1cccc(/C=C/c2ccccc2)c1Br)N1CCN2C[C@@H](c3ccc(Cl)cc3)CC[C@@H]2C1` at or over 7 in terms of pIC50?
Result block: rule not met
